// values below are reported pEC50
# measurement_target: T1, TauC3 (C-terminally truncated tau fragment ending at aspartate 421 of htau40) (human, UniProt P10636 1-738)
# T1 construct: Generated and purified by Genscript; also called Human TauC3; recombinant TauC3 protein
# T1 sequence (P10636 other isoform, or with tags, fused parts or gaps): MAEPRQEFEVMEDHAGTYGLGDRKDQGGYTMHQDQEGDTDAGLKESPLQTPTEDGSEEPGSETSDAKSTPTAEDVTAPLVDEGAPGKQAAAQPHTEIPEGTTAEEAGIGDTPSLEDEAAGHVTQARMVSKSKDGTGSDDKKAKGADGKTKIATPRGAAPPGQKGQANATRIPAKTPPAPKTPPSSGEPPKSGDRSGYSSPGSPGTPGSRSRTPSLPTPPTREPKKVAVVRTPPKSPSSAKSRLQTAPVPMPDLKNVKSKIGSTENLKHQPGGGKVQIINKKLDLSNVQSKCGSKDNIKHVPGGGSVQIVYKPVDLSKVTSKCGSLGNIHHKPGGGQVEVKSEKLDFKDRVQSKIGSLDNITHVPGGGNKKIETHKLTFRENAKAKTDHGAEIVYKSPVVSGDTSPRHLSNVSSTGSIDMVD
# protocol_notes: binding ELISA on coated TauC3, OD650; right table (HM variants)
Recall that pEC50 is obtained by taking minus log10 of the concentration measured in molar.

May I ask what pEC50 has been recorded for Tau01 HMKL (antibody, V domains shown, human IgG4 kappa (HuG4K)) VH: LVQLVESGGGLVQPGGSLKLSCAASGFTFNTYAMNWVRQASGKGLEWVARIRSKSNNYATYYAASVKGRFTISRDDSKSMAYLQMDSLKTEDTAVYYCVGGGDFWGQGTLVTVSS VL: DIQMTQSPSSLSASVGDRVTITCRASQEISVYLSWFQQKPGKAIKRLIYGAFKLQSGVPSRFSGSRSGTEYTLTISSLQPEDFATYYCLQYVRYPWTFGGGTKVEIK ?
9.33

May I ask what pEC50 has been recorded for Tau01 HMKP HuG4k (antibody, V domains shown, human IgG4 kappa (HuG4K); Lead candidate) VH: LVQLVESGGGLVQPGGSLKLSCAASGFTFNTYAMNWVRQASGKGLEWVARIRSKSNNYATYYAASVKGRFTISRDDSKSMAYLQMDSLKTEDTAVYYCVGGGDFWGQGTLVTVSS VL: DIQMTQSPSSLSASVGDRVTITCRASQEISVYLGWFQQKPGKAPKRLIYGAFKLQSGVPSRFSGSRSGTEYTLTISSLQPEDFATYYCLQYVRYPWTFGGGTKVEIK ?
9.30

May I ask what pEC50 has been recorded for Tau01 HMKO HuG4k (antibody, V domains shown, human IgG4 kappa (HuG4K)) VH: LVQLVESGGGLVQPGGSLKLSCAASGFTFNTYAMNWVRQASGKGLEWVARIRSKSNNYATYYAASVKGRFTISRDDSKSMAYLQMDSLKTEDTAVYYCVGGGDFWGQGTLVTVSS VL: DIQMTQSPSSLSASVGDRVTITCRASQEISVYLGWYQQKPGKAPKRLIYGAFSLQSGVPSRFSGSRSGTEYTLTISSLQPEDFATYYCLQYVRYPWTFGGGTKVEIK ?
9.23
